This collection of values is drawn from PubChem BioAssay AID761.

SYSTEM_TESTED: Cell division control protein 42 homolog (Homo sapiens) (UniProt P60953)
Sequence (P60953 whole entry, looked up): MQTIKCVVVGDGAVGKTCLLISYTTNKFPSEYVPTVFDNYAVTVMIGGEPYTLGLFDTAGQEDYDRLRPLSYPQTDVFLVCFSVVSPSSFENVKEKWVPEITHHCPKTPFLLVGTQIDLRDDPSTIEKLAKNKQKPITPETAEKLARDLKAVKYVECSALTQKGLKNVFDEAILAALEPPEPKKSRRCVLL
METHOD_SUMMARY: wildtype Cdc42 fluorescent GTP binding changes, either direction – biochemical, multiplex bead flow cytometry, Bodipy-GTP, primary screen (AID 761);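 note: median bead fluorescence of bound Bodipy-FL-GTP at 100 nM; 0% = excess unlabeled GTP control and 100% = no compound control; below 100% means less GTP binding so inhibitor and above means activator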
ASSAY_CONTEXT: GST-Cdc42 beads, at 10 µM, actives lie on both sides
About 400 (0.21%) of roughly 190,000 compounds were called active. Roughly 2% stayed inconclusive and do not appear here.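 Rule for the calls: active = percent activity GTP binding at least 20 points away from the 100% baseline, either down as inhibitor or up as activator; inconclusive = compound flagged as likely green fluorescent from well-wide comparison; inactive = the rest.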 This is one part of a sample in which actives are shown more often than they occur.
Parameter call: string, one of 1.0 for active, 0.0 for inactive

q: Please state the recorded outcome for this compound: Cc1ccc(C(=O)OC(C)CN2CCOCC2)cc1 (stereo not drawn)
a: 0.0

q: Please state the recorded outcome for this compound: COc1ccc(C)cc1NC(=O)CSc1nnc(CC(=O)Nc2ccccc2F)n1C
a: 0.0

q: Please state the recorded outcome for this compound: O=S(=O)(NC1CC1)c1ccc2c3c(cccc13)CC2
a: 0.0

Further cases:
q: Please state the recorded outcome for this compound: O=C(Cc1ccc(F)cc1)N/N=C/c1ccc2c(c1)OCO2
a: 0.0

q: Please state the recorded outcome for this compound: CCCC(C)C(=O)NCc1ccncc1 (stereo not drawn)
a: 0.0

q: Please state the recorded outcome for this compound: CC1(C)C(c2cccs2)=[N+]([O-])C2(CCCCC2=O)N1O (stereo not drawn)
a: 0.0
